# Tested target: NLRP3 (Homo sapiens, UniProt Q96P20)
# Sequence (Q96P20 whole entry): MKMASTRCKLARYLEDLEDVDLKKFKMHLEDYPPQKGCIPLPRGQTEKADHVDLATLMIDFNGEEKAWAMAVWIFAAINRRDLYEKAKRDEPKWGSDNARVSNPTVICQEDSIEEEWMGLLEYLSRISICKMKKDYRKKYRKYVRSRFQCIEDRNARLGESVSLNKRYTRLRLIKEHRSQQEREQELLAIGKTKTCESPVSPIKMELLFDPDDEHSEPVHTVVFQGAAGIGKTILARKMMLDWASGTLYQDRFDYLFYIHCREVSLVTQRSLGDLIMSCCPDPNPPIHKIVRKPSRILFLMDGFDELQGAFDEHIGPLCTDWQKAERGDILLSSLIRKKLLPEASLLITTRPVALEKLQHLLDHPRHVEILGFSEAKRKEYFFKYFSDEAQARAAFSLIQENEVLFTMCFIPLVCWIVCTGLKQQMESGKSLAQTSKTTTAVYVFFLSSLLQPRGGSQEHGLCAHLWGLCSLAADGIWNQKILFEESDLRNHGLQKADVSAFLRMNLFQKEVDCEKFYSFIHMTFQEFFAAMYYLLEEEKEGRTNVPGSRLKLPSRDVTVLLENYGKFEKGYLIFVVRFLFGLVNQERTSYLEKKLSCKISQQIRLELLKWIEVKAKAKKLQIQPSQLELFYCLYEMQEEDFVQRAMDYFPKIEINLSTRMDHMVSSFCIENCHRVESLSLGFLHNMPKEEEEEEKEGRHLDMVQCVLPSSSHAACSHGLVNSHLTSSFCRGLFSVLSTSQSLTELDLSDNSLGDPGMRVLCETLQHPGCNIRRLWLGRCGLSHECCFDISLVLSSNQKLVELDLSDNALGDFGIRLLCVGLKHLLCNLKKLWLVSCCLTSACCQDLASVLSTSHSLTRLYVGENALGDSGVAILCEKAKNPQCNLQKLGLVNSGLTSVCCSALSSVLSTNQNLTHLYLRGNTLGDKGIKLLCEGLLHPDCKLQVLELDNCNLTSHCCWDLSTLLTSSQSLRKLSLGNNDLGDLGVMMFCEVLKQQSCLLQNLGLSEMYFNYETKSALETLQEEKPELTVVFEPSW
# Experiment summary: Human whole blood IL-1β release assay (LPS, nigericin, AlphaLisa)
# Format: cell-based
# Set-up: Plate out 80 μl of whole blood containing 1 μg/ml of LPS; from tissue; host or cells: human whole blood from healthy donors, LPS-primed, nigericin-stimulated
# Assay setup: 1 μg/ml LPS, 3 h compound, 10 μM nigericin 1 hr, IL-1β in supernatant, read-out: Human whole blood IB-1β Assay IC50
# Protocol: For systemic delivery, the ability to inhibit NLRP3 when the compounds are present within the bloodstream is of great importance. For this reason, the NLRP3 inhibitory activity of a number of compounds in human whole blood was investigated in accordance with the following protocol. Human whole blood in Li-heparin tubes was obtained from healthy donors from a volunteer donor panel. • 1. […] IL-1β was measured according to the manufacturer protocol (Perkin Elmer-AlphaLisa IL-1 Kit AL220F-5000) • 8. […]
pIC50: −log10 of the molar value. Counter-ions that a name gives are not always drawn.
Measured parameter: pIC50

CCN1CCC[C@@H](Nc2nnc(-c3ccc(OC(F)(F)F)cc3O)c3c2cnn3C)C1 [Example 10] ... 10.62

a = CCN1CCC[C@@H](Nc2nnc(-c3ccc(C(F)(F)F)cc3O)c3onc(C)c23)C1 [Example 13]
b = CCN1CCC[C@@H](Nc2nnc(-c3c(O)cc(C(F)(F)F)cc3F)c3c2cnn3C)C1 [Example 15]
c = CCN1CCC[C@@H](Nc2nnc(-c3ccc(C(F)(F)F)cc3O)c3c2ccn3C)C1 [Example 5-TFA]
Order these by pIC50, descending, and give the full ranking. Put the labels in the requested order and list them out. c, b, a
(c: 10.55, b: 9.63, a: 8.59)

* * *

# Tested target: NLRP3 (Homo sapiens, UniProt Q96P20)
# Experiment summary: THP-1 cells pyroptosis assay (LPS priming, nigericin, resazurin readout)
# Format: cell-based
# Design: Seed THP-1 cells (25,000 cells/well) containing 1.0 μg/ml LPS; host or cells: THP-1 cells, LPS-primed, nigericin-stimulated
# Assay setup: 1 μg/ml LPS, 3 h compound, 5 μM nigericin 1 hr
pIC50: −log10 of the molar value. Counter-ions that a name gives are not always drawn.
Measured parameter: pIC50

CCN1CCC[C@@H](Nc2nnc(-c3ccc(C(F)(F)F)cc3O)c3c2ccn3C)C1 [Example 5-TFA] ... 7.91

a = CCN1CCC[C@@H](Nc2nnc(-c3c(C)cc(C(F)(F)F)cc3O)c3[nH]ncc23)C1
b = CCN1CCCC(Nc2nnc(-c3ccc(C(F)(F)F)cc3)c3sccc23)C1 (racemic)
# compare pIC50 for a vs b ; return the one with the smaller value Lab note: record the label of whichever item you select. b
(b: 7.28, a: 8.11)

* * *

# Tested target: NLRP3 (Homo sapiens, UniProt Q96P20)
# Experiment summary: Human whole blood IL-1β release assay (LPS, nigericin, AlphaLisa)
# Assay type: cell-based
# Parameters: Plate out 80 μl of whole blood containing 1 μg/ml of LPS; from tissue; host or cells: human whole blood from healthy donors, LPS-primed, nigericin-stimulated
# Assay setup: 1 μg/ml LPS, 3 h compound, 10 μM nigericin 1 hr, IL-1β in supernatant, read-out: Human whole blood IB-1β Assay IC50
# Protocol: For systemic delivery, the ability to inhibit NLRP3 when the compounds are present within the bloodstream is of great importance. For this reason, the NLRP3 inhibitory activity of a number of compounds in human whole blood was investigated in accordance with the following protocol. Human whole blood in Li-heparin tubes was obtained from healthy donors from a volunteer donor panel. • 1. […] IL-1β was measured according to the manufacturer protocol (Perkin Elmer-AlphaLisa IL-1 Kit AL220F-5000) • 8. […]
pIC50: −log10 of the molar value.
Measured parameter: pIC50

A = CCN1CCC[C@@H](Nc2nnc(-c3ccc(Cl)cc3O)c3c2cnn3C)C1
B = CCN1CCC[C@@H](Nc2nnc(-c3ccc(C(F)(F)F)cc3O)c3c2cnn3C)C1
Task for the reader: decide whether A or B has the larger pIC50. Indicate which entry you chose by stating its label. A
(A: 10.85, B: 10.55)

I = CCN1CCC[C@@H](Nc2nnc(-c3c(C)cc(C(F)(F)F)cc3O)c3[nH]ncc23)C1
II = CCN1CCC[C@@H](Nc2nnc(-c3ccc(C(F)(F)F)cc3O)c3cnn(C)c23)C1
API: POST /compare with I and II ; response names the item with higher pIC50. Reply with the label of the item you choose. I

a = CCN1CCCC(Nc2nnc(-c3ccc(C(F)(F)F)cc3)c3ccsc23)C1 (racemic)
b = CCN1CCC[C@@H](Nc2nnc(-c3ccc4c(c3O)CCO4)c3c2cnn3C)C1
// compare measured pIC50, left a , right b , return larger Give the label of your selection. b
(b: 10.82, a: 10.04)

* * *

# Tested target: NLRP3 (Homo sapiens)
# Experiment summary: THP-1 cells pyroptosis assay (LPS priming, nigericin, resazurin readout)
# Assay type: cell-based
# Set-up: Seed THP-1 cells (25,000 cells/well) containing 1.0 μg/ml LPS; host or cells: THP-1 cells, LPS-primed, nigericin-stimulated
# Assay setup: 1 μg/ml LPS, 3 h compound, 5 μM nigericin 1 hr
Counter-ions that a name gives are not always drawn.
Measured parameter: IC50 (nM)

Guide cases for IC50, answers given:
Cn1ncc2c(N[C@@H]3CCCC[C@H]3O)nnc(-c3ccc(C(F)(F)F)cc3O)c21 [Example 11] ... 76
Cn1ncc2c(N[C@H]3C[C@@](C)(O)C3)nnc(-c3ccc(C(F)(F)F)cc3O)c21 [Example 16] ... 362
CCN1C[C@@H](O)C[C@@H](Nc2nnc(-c3ccc4c(c3O)CCO4)c3c2cnn3C)C1 [Example 19] ... 46.6
CCN1CCC[C@@H](Nc2nnc(-c3ccc(C(F)(F)F)cc3O)c3c2cnn3C)C1 [Example 6] ... 3.5

a = CCN1CCC[C@@H](Nc2nnc(-c3ccc(C(F)(F)F)cc3O)c3c2ccn3C)C1 [Example 5-HCl]
b = CCN1CCC[C@@H](Nc2nnc(-c3ccc4c(c3O)CC4)c3c2cnn3C)C1 [Example 18]
c = CCN1CCCC(Nc2nnc(-c3ccc(C(F)(F)F)cc3O)c3sccc23)C1 (racemic) [Example 2]
d = CCN1CCCC(Nc2nnc(-c3ccc(C(F)(F)F)cc3)c3ccsc23)C1 (racemic) [Example 3]
# rank by IC50, ascending (min first) Give the labels in the order requested. b, c, a, d

* * *

# Tested target: NLRP3 (Homo sapiens, UniProt Q96P20)
# Experiment summary: THP-1 cells pyroptosis assay (LPS priming, nigericin, resazurin readout)
# Type: cell-based
# Parameters: Seed THP-1 cells (25,000 cells/well) containing 1.0 μg/ml LPS; host or cells: THP-1 cells, LPS-primed, nigericin-stimulated
# Assay setup: 1 μg/ml LPS, 3 h compound, 5 μM nigericin 1 hr
pIC50: −log10 of the molar value.
Measured parameter: pIC50

1 = CCN1CCC[C@@H](Nc2nnc(-c3ccc(OC(F)(F)F)cc3O)c3c2cnn3C)C1 [Example 10]
2 = CCN1CCC[C@@H](Nc2nnc(-c3ccc(C(F)(F)F)cc3O)c3occc23)C1 [Example 7]
3 = CCN1CCC[C@@H](Nc2nnc(-c3ccc4c(c3O)CCO4)c3c2cnn3C)C1 [Example 17]
4 = CCN1CCC[C@@H](Nc2nnc(-c3ccc(C(F)(F)F)cc3O)c3onc(C)c23)C1 [Example 13]
Ordering: ascending pIC50. Present the labels in the sequence the task asks for. 4, 2, 3, 1
(4: 7.74, 2: 8.04, 3: 8.44, 1: 8.64)

* * *

# Tested target: NLRP3 (Homo sapiens)
# Experiment summary: THP-1 cells pyroptosis assay (LPS priming, nigericin, resazurin readout)
# Format: cell-based
# Design: Seed THP-1 cells (25,000 cells/well) containing 1.0 μg/ml LPS; host or cells: THP-1 cells, LPS-primed, nigericin-stimulated
# Assay setup: 1 μg/ml LPS, 3 h compound, 5 μM nigericin 1 hr
pIC50: −log10 of the molar value.
Measured parameter: pIC50

Use these answered entries as a reference point.
CCN1CCC[C@@H](Nc2nnc(-c3ccc(C(F)(F)F)cc3O)c3cnn(C)c23)C1 [Example 9] ... 8.57
CCN1CCCC(Nc2nnc(-c3ccc(C(F)(F)F)cc3O)c3ccsc23)C1 (racemic) [Example 1, formic acid] ... 8.80

P = CCN1CCC[C@@H](Nc2nnc(-c3ccc(Cl)cc3O)c3c2cnn3C)C1 [Example 12]
Q = CCN1CCC[C@@H](Nc2nnc(-c3c(O)cc(C(F)(F)F)cc3F)c3c2cnn3C)C1 [Example 15]
Identify the entry with the larger pIC50. Options: P and Q Your answer should be the label attached to the chosen record. P
